In this section we review reported pKi values for a set of compounds.
- MEASURED_ON: D(2) dopamine receptor (Bos taurus, UniProt P20288)
- Sequence (P20288 whole entry): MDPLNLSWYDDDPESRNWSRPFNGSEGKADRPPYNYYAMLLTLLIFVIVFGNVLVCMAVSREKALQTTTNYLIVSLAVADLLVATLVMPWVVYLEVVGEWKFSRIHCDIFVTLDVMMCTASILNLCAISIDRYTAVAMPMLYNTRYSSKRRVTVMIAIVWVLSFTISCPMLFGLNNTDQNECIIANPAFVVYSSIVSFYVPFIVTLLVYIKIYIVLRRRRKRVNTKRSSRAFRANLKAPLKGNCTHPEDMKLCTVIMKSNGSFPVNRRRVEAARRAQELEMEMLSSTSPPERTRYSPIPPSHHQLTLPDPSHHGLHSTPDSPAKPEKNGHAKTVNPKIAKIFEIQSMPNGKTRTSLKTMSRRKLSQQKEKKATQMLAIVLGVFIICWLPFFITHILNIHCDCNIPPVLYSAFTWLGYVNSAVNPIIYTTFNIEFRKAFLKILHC
- ASSAY_TEXT: Inhibition of [3H]YM-09151-2 binding to bovine retina membrane Dopamine receptor D2, high affinity site
pKi: −log10 of the molar value.
METRIC_NAME: pKi

{"columns": ["COMPOUND", "ENDPOINT_RESULT"],
 "data": [
  ["Cc1ccc(C2CCCNC2)cc1C (stereo not given)", 6.85],
  ["CCCN1CCCC(c2c(C)cccc2C)C1 (stereo not given)", 6.81],
  ["CCCN1CCC[C@@H](c2cccc(O)c2)C1", 6.28],
  ["CCCN1CCCC(c2ccc(C)c(C)c2)C1 (stereo not given)", 7.72],
  ["Cc1cc(C)cc(C2CCCNC2)c1 (stereo not given)", 6.62],
  ["CCCN1CCCC(c2cc(C)cc(C)c2)C1 (stereo not given)", 7.28],
  ["CCCN1CCCC(c2ccc(C)cc2C)C1 (stereo not given)", 6.14],
  ["CCCN1CCCC(c2cccc(C)c2C)C1 (stereo not given)", 7.12],
  ["Cc1cccc(C2CCCNC2)c1C (stereo not given)", 7.37],
  ["CCCN1CCCC(c2cc(C)ccc2C)C1 (stereo not given)", 6.27]
]}

----------
- MEASURED_ON: D(2) dopamine receptor (Bos taurus, UniProt P20288)
- ASSAY_TEXT: Tested for binding affinity against Dopamine receptor D2 like from bovine striatum membranes by using [3H]YM-09151-2 radioligand
pKi: −log10 of the molar value.
In this section we review reported pKi values for a set of compounds.

{"columns": ["COMPOUND", "MEASURED_ON", "pKi"],
 "data": [
  ["CCCN1CCCC(c2cccc(C)c2C)C1 (centres undefined)", "D(2) dopamine receptor (Bos taurus, UniProt P20288)", 5.31],
  ["CCCN1CCC[C@@H](c2cccc(O)c2)C1 [PRECLAMOL]", "D(2) dopamine receptor (Bos taurus, UniProt P20288)", 5.68],
  ["CCCN1CCCC(c2cc(C)cc(C)c2)C1 (centres undefined)", "D(2) dopamine receptor (Bos taurus, UniProt P20288)", 5.89],
  ["CCCN1CCCC(c2ccc(C)c(C)c2)C1 (centres undefined)", "D(2) dopamine receptor (Bos taurus, UniProt P20288)", 5.30]
]}

----------
- MEASURED_ON: UniProt:Q95136
- Sequence (Q95136 whole entry): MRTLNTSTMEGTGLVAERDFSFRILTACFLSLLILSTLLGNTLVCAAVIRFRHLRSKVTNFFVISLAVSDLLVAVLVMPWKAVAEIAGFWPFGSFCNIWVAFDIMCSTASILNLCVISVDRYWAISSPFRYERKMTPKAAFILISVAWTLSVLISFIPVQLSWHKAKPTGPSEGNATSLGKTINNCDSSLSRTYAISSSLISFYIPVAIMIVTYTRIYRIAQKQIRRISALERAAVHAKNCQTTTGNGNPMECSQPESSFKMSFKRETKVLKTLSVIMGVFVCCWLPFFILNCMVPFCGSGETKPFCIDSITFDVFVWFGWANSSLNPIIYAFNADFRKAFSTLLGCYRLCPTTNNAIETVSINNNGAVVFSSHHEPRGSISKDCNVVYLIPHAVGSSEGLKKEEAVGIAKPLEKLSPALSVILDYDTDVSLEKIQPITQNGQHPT
- ASSAY_TEXT: Binding affinity against Dopamine receptor D1 like from bovine retina membranes measured using [3H]SCH-23390 radioligand
Labelling field: enter criterion met if recorded Ki is less than 60 µM. Enter criterion not met if it equals or exceeds that cut-off.

{"columns": ["MOLECULE", "QUALITATIVE_LABEL"],
 "data": [
  ["CCCN1CCCC(c2ccc(C)c(C)c2)C1 (configuration not stated)", "criterion not met"],
  ["CCCN1CCCC(c2ccc(C)cc2C)C1 (configuration not stated)", "criterion not met"],
  ["CCCN1CCCC(c2c(C)cccc2C)C1 (configuration not stated)", "criterion not met"],
  ["NCCc1ccc(O)c(O)c1", "criterion met"],
  ["CCCN1CCCC(c2cc(C)ccc2C)C1 (configuration not stated)", "criterion not met"]
]}

----------
- MEASURED_ON: D(2) dopamine receptor (Bos taurus, UniProt P20288)
- ASSAY_TEXT: Inhibition of [3H]YM-09151-2 binding to bovine retina membrane Dopamine receptor D2, low affinity site
pKi: −log10 of the molar value.
METRIC_NAME: pKi

{"columns": ["COMPOUND", "METRIC_NAME", "ENDPOINT_RESULT"],
 "data": [
  ["Cc1cccc(C2CCCNC2)c1C (stereo not given)", "pKi", 4.80],
  ["CCCN1CCCC(c2c(C)cccc2C)C1 (stereo not given)", "pKi", 4.64],
  ["Cc1ccc(C2CCCNC2)cc1C (stereo not given)", "pKi", 4.72],
  ["CCCN1CCCC(c2ccc(C)cc2C)C1 (stereo not given)", "pKi", 4.77],
  ["CCCN1CCCC(c2ccc(C)c(C)c2)C1 (stereo not given)", "pKi", 5.09],
  ["Cc1cc(C)cc(C2CCCNC2)c1 (stereo not given)", "pKi", 4.62],
  ["CCCN1CCCC(c2cc(C)ccc2C)C1 (stereo not given)", "pKi", 4.60],
  ["CCCN1CCC[C@@H](c2cccc(O)c2)C1", "pKi", 4.92],
  ["CCCN1CCCC(c2cc(C)cc(C)c2)C1 (stereo not given)", "pKi", 5.03],
  ["CCCN1CCCC(c2cccc(C)c2C)C1 (stereo not given)", "pKi", 5.11]
]}

All figures here come from ChEMBL document CHEMBL1131416.
